Ref: patent US10954262B2

# System: Pseudomonas aeruginosa (ATCC27853)
# procedure.details: microbe, parasite or virus in culture
# Assay type: cell-based
Known MBC of a selection of molecules

>  <molecule>
CCCCCCCCCC(=O)NC1C(OC2OC(C[C@@H](O)[C@H]3O[C@@H](n4ccc(=O)[nH]c4=O)[C@H](O)[C@@H]3O)C(O)C(O)[C@H]2NC(=O)CCCCCCCCC)OC(CO)[C@@H](O)C1O (stereo partly drawn)

>  <modifier>
=

>  <MBC [µg/mL]>
400

$$$$
>  <molecule>
CCCCCCC(=O)NC1C(OC2OC(C[C@@H](O)[C@H]3O[C@@H](n4ccc(=O)[nH]c4=O)[C@H](O)[C@@H]3O)C(O)C(O)[C@H]2NC(=O)CCCCCC)OC(CO)[C@@H](O)C1O (stereo partly drawn) [Compound E2, Di-N-heptanoyl tunicamycin]

>  <modifier>
>

>  <MBC [µg/mL]>
400

$$$$
>  <molecule>
CCCCCCCCCCC(=O)NC1C(OC2OC(C[C@@H](O)[C@H]3O[C@@H](n4ccc(=O)[nH]c4=O)[C@H](O)[C@@H]3O)C(O)C(O)[C@H]2NC(=O)CCCCCCCCCC)OC(CO)[C@@H](O)C1O (stereo partly drawn)

>  <modifier>
=

>  <MBC [µg/mL]>
400

$$$$
